Ref: the supplement of paper PMC7125110

B1: glmS ribozyme (parent)
chain: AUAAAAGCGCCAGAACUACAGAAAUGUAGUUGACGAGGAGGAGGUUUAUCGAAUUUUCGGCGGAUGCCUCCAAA

variants of: B1; test: self-cleavage kobs at 640 uM GlcN6P; higher = faster cleavage; RNA array; settings: with glucosamine-6-phosphate
Variants at the floor of the assay were thinned out.
Reported self-cleavage kobs at 640 uM GlcN6P by item:
Write the number in s⁻¹ without appending the unit.

{"Mutation": "U31A G32A", "Result number": 0.000222}
{"Mutation": "A39U U46C", "Result number": 0.00284}
{"Mutation": "U56G", "Result number": 0.00628}
{"Mutation": "U46G C67G", "Result number": 0.000112}
{"Mutation": "U47G U55G", "Result number": 0.00195}
{"Mutation": "A12U G44C", "Result number": "5.33e-05"}

So for A14C A39C , the logged self-cleavage kobs at 640 uM GlcN6P turned out to be 5.77e-05

So for A12U A15U , the logged self-cleavage kobs at 640 uM GlcN6P turned out to be 0.00509

So for G13C A14C C71U , the logged self-cleavage kobs at 640 uM GlcN6P turned out to be 4.16e-05

So for U31A A53G U65A C70A , the logged self-cleavage kobs at 640 uM GlcN6P turned out to be 6.1e-05

So for G29A A33G U69A , the logged self-cleavage kobs at 640 uM GlcN6P turned out to be 5.13e-05
